Tested on: COLO 205 colon
Experiment: NCI tumour cell line growth inhibition, 48 h
// reported TGI for each item listed

| MOLECULE | ASSAY TARGET | ENDPOINT | OBS VALUE |
| --- | --- | --- | --- |
| CCC[CH2][Ge]([CH2]CCC)([CH2]CCC)[O]C(=O)C(OC(C)=O)c1ccccc1 (centres undefined) | COLO 205 colon | TGI | 20.9 µM |
| Nc1ccc(-c2nc3ccccc3s2)cc1I | COLO 205 colon | TGI | > 100 µM |
| CC1=C2c3ccccc3N(S(=O)(=O)c3ccccc3)[C@H]2[C@H](C(=O)N2C3CC4CC[C@@]3(CS2(=O)=O)C4(C)C)CC1 (some centres undefined) | COLO 205 colon | TGI | > 100 µM |
| O=C(Nn1c(-c2ccccc2)nc2ccccc2c1=O)c1ccc(O)cc1 | COLO 205 colon | TGI | > 100 µM |
| O=C(/C=C/c1ccc(O)cc1)c1cc(O)cc(O)c1 | COLO 205 colon | TGI | 31.9 µM |
| CC(=O)O[C@H]1CC[C@@]2(C)C(=CC[C@H]3[C@@H]4C/C(=C\c5ccncc5)[C@H](OC(C)=O)[C@@]4(C)CC[C@@H]32)C1 | COLO 205 colon | TGI | 18.2 µM |
| COC(=O)CCSC1=CC(=O)c2nc3ccccc3c3ccnc1c23 | COLO 205 colon | TGI | > 47 µM |
| CCOP(=O)(OCC)/C(C#N)=C/c1cc(O)ccc1O | COLO 205 colon | TGI | > 100 µM |

Return reported TGI; argument: COc1ccc(C(=O)c2cc(OC)c(OC)c(OC)c2)cc1/C=C/C(=O)c1ccc2c(c1)OCO2
> 100 µM
